TARGET ENTITY: Human M4 (Homo sapiens)
Construct: expressed in transfected cells; host or cells: CHO-K1 (Chinese hamster ovary) cells, stably co-transfected with Gqi5
ASSAY SUMMARY: mAChR M4 cell-based functional assay (calcium flux, antagonism of EC80 acetylcholine response)
MEASUREMENT CONTEXT: % ACh maximum at 30 μM; human M4; read-out: Emin
Classify: yes when remaining activity at 30 µM is strictly less than 20%; no when remaining activity at 30 µM is not.

Reference set, count: 3
Cc1cnn(C)c1-c1ccc(NCC2CCC3CN(CC4CCCOC4)CC23)nn1 (centres unmarked)    no
Cc1cnn(C)c1-c1ccc(NC2CCC3CN(CC45CC6CC(CC(C6)C4)C5)CC32)nn1 (centres unmarked)    yes
Cc1cnn(C)c1-c1ccc(NCCC2CCC3CN(CC4CCCOC4)CC23)nn1 (centres unmarked)    no

Task item: Hello, I'm reviewing records and need to know if remaining activity at 30 µM of Cc1cnn(C)c1-c1ccc(NCC2CCC3CN(Cc4ccccc4)CC23)nn1 (centres unmarked) is below 20%. Could you check?
Reply: yes

Task item: Also check Cc1cnn(C)c1-c1ccc(OC2CCC3CN(CCC(C)(C)C)CC32)nn1 (centres unmarked)
Reply: yes

Task item: Also check Cc1cnn(C)c1-c1ccc(NCCC2CCC3CN(CC45CC6CC(CC(C6)C4)C5)CC23)nn1 (centres unmarked)
Reply: yes

Task item: Also check Cc1cnn(C)c1-c1ccc(NCC2CCC3CN(CC45CC6CC(CC(C6)C4)C5)CC23)nn1 (centres unmarked)
Reply: yes

Task item: Also check Cc1cnn(C)c1-c1ccc(NCC2CCC3CN(CCC(C)(C)C)CC23)nn1 (centres unmarked)
Reply: yes

====

TARGET ENTITY: Human M4 (Homo sapiens, UniProt P08173)
Construct: expressed in transfected cells; host or cells: CHO-K1 (Chinese hamster ovary) cells, stably co-transfected with Gqi5
Sequence (P08173 whole entry): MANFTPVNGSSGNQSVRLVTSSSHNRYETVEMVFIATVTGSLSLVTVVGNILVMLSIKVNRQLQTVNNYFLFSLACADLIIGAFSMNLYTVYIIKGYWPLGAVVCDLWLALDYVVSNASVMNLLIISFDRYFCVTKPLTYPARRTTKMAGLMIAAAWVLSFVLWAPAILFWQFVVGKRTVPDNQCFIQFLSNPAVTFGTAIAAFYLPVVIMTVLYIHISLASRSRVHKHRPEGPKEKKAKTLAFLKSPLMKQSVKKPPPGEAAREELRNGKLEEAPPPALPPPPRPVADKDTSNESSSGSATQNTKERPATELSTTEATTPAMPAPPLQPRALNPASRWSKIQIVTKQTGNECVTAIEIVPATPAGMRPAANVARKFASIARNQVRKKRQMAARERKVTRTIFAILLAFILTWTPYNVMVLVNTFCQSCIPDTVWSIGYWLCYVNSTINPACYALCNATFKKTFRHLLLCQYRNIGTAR
ASSAY SUMMARY: mAChR M4 cell-based functional assay (calcium flux, antagonism of EC80 acetylcholine response)
MEASUREMENT CONTEXT: % ACh maximum at 30 μM; human M4; read-out: Emin
Reported remaining activity at 30 µM by item:
Note: unit % is implicit; provide only the numeric part.

Reference set, count: 2
Cc1cnn(C)c1-c1ccc(NCC2CCC3CN(CCc4ccccc4)CC23)nn1 (stereo not drawn)    5.96
Cc1cnn(C)c1-c1ccc(NC2CCC3CN(CC4CC5C=CC4C5)CC32)nn1 (stereo not drawn)    14

Field: next compound
Task item: So what does the record say about remaining activity at 30 µM for Cc1cnn(C)c1-c1ccc(NCCC2CCC3CN(CCC(C)(C)C)CC23)nn1 (stereo not drawn) ?
Reply: 4.47

====

TARGET ENTITY: Human M4 (Homo sapiens)
Construct: expressed in transfected cells; host or cells: CHO-K1 (Chinese hamster ovary) cells, stably co-transfected with Gqi5
ASSAY SUMMARY: mAChR M4 cell-based functional assay (calcium flux, antagonism of EC80 acetylcholine response)
MEASUREMENT CONTEXT: % ACh maximum at 30 μM; human M4; read-out: Emin
Reported remaining activity at 30 µM by item:
# number then unit; no other words

Cc1cnn(C)c1-c1ccc(OC2CCC3CN(Cc4ccccc4)CC32)nn1 (stereo not drawn) [Compound 8]    43.3%

Task item: So what does the record say about remaining activity at 30 µM for Cc1cnn(C)c1-c1ccc(NC2CCC3CN(CCC(C)(C)C)CC32)nn1 (stereo not drawn) [Compound 1] ?
Reply: 31.1%

Task item: Also check Cc1cnn(C)c1-c1ccc(NCCC2CCC3CN(CCc4ccccc4)CC23)nn1 (stereo not drawn) [Compound 16]
Reply: 6.59%

Task item: Also check Cc1cnn(C)c1-c1ccc(OC2CCC3CN(CC45CC6CC(CC(C6)C4)C5)CC32)nn1 (stereo not drawn) [Compound 6]
Reply: 3.95%

Task item: Also check Cc1cnn(C)c1-c1ccc(OC2CCC3CN(CC4CC5C=CC4C5)CC32)nn1 (stereo not drawn) [Compound 7]
Reply: 5.46%

Task item: Also check Cc1cnn(C)c1-c1ccc(OC2CCC3CN(CCc4ccccc4)CC32)nn1 (stereo not drawn) [Compound 9]
Reply: 29.6%
